assay: differential killing of epithelial or mesenchymal cells, primary screen, imaging, PC-3E GFP, TEM4-18 mCherry, co-culture (AID 1345086); settings: imaging cell counts, measured here: mesenchymal TEM4-18 mCherry cell survival, at 1 µM;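 further: cells exposed to compound for 72 h before imaging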
EXPERIMENTAL READOUT: normalised cell number

compound=COc1cc(C)c2c(=O)cc(-c3ccccc3)oc2c1 result=1.09
compound=COc1ccc2c(c1OC)OC[C@@H](c1ccc(OC)c(OC)c1OC)C2 result=0.86
compound=CN1CCN(C2=Nc3cc(Cl)ccc3Nc3ccccc32)CC1 result=1.14
compound="COC1(C)CCC2OC2(C)CCC2C1CC2(C)C (stereo unspecified)" result=0.91

Supply measured normalised cell number of CC(=O)[C@@]1(O)CCC2C3CCC4=CC(=O)CC[C@]4(C)C3CC[C@@]21C (stereo partly specified) in your reply.
0.92

Supply measured normalised cell number of Cc1cc(C(C)(C)CC(C)(C)C)ccc1OCCOCC[N+](C)(C)Cc1ccccc1 in your reply.
0.98

Supply measured normalised cell number of CC(CN(C)C)CN1c2ccccc2Sc2ccccc21 (stereo unspecified) in your reply.
1.05

Supply measured normalised cell number of CCc1ccc2c(O)c3c(cc2c1C(=O)OC)C(=O)c1c(O)ccc(O)c1C3=O in your reply.
0.92

Supply measured normalised cell number of O=C(O)c1cccc(O)c1O in your reply.
1.19

Supply measured normalised cell number of O=C(/C=C/c1ccccc1)c1ccc(O[C@@H]2O[C@H](CO)[C@@H](O)[C@H](O)[C@H]2O)cc1O in your reply.
0.9

Supply measured normalised cell number of O=S(=O)(O)NC1CCCCC1 in your reply.
0.84

* * *

assay: CellTiter-Glo luminescent readout of SW480 viability loss, NPC library primary (AID 1117343); details: CellTiter-Glo luminescence; at 20 µM (top of the series) unless noted
Cut-off 50% on viability decrease (inhibition): below means 1.0, at or above means 0.0.

compound=CN1CCN(c2c(F)cc3c(=O)c(C(=O)O)cn(CCF)c3c2F)CC1 classification=1.0

Could you please tell me whether viability decrease (inhibition) recorded for Cc1c(N)c(=O)n(-c2ccccc2)n1C is less than 50%?
1.0

Could you please tell me whether viability decrease (inhibition) recorded for COc1ccc2c(c1OC)C(=O)O[C@@H]2[C@H]1c2c(cc3c(c2OC)OCO3)CCN1C is less than 50%?
0.0

Could you please tell me whether viability decrease (inhibition) recorded for N[C@@H](COP(=O)(O)O)C(=O)O is less than 50%?
1.0

Could you please tell me whether viability decrease (inhibition) recorded for C[C@]12CCC(=O)C=C1[C@@H]1C[C@@H]1[C@H]1[C@@H]3[C@@H]4C[C@@H]4[C@@]4(CCC(=O)O4)[C@@]3(C)CC[C@@H]12 is less than 50%?
1.0

* * *

molecular target: Mitogen-activated protein kinase 7 (Homo sapiens) (UniProt Q13164); experiment: ERK5 transactivation activators in reporter cells, primary screen, cell-based, HTS (AID 1508626); conditions: HeLa Gal4-ERK5 transactivation, 18 h, at 5 µM;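 further: luciferase driven by Gal4-ERK5 fusion binding five Gal4 sites before minimal TATA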
Sequence (Q13164 whole entry, looked up, the tested form may be a part): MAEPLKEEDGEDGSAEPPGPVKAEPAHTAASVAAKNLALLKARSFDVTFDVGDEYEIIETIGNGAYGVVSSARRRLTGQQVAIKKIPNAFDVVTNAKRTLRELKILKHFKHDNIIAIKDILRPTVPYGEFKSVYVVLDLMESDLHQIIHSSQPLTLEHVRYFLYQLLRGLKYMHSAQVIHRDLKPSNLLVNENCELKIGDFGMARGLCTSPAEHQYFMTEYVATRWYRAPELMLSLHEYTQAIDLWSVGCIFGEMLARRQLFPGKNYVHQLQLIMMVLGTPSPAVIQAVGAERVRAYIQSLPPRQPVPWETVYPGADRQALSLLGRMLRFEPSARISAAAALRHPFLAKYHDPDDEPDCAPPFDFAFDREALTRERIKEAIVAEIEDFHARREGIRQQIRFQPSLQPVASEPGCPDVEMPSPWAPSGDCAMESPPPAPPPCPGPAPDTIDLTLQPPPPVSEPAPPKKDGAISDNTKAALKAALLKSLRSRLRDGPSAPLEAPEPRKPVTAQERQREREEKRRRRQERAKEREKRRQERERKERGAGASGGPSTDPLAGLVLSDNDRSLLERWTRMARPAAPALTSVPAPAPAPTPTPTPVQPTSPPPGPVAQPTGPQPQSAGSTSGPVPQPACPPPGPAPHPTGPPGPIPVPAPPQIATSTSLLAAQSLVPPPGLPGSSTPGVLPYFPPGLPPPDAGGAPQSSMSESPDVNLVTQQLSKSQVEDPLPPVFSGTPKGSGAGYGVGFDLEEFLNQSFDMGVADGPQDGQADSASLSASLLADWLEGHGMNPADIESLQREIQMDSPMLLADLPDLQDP
Calls of active or inactive are those of the source.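 The calls were made as follows: active = luciferase signal above three times the same-plate solvent-only control wells; inactive = the rest.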
Classes to choose from: t for active, f for inactive

Worked cases, answers included:
molecule=C=C[C@H]1CN2CC[C@H]1C[C@H]2[C@H](O)c1ccnc2ccc(OC)cc12 classification=f
molecule=Clc1ccc(Cn2c(CN3CCCC3)nc3ccccc32)cc1 classification=f
molecule="COc1c(CC(=O)c2cc3c(cc2O)OC(C)(C)C(O)C3)ccc2c1C=CC(C)(C)O2 (configuration not stated)" classification=f
molecule=C[C@H]1[C@H](C)CC[C@]2(C(=O)O)CC[C@]3(C)C(=CC[C@@H]4[C@@]5(C)C[C@@H](O)[C@H](O)[C@@](C)(CO)[C@@H]5[C@H](O)C[C@]43C)[C@H]12 classification=f
molecule=NC(=O)c1ncn([C@@H]2O[C@H](CO)[C@@H](O)[C@H]2O)c1N classification=f
molecule=CCCCC(=O)O[C@H]1CC[C@H]2[C@@H]3CCc4cc(O)ccc4[C@H]3CC[C@]12C classification=f
molecule="O=C(O)C1CC([C@@H]2CCCCN2)CN2CCCCC12 (some centres not stated)" classification=t
molecule=NCCCS(=O)(=O)O classification=f
molecule=Nc1ncnc2c1ncn2[C@@H]1O[C@H](CO)[C@@H](O)[C@@H]1O classification=f
molecule=O=C(O)c1cc2cc(Cl)ccc2[nH]1 classification=f

Hey, what did the test say about Cc1cc(O)cc(O)c1C(=O)O ?
f

Hey, what did the test say about CN(C)C(=N)N=C(N)N ?
t

Hey, what did the test say about CN1CCC[C@@H]1Cc1c[nH]c2ccc(CCS(=O)(=O)c3ccccc3)cc12 ?
f

Hey, what did the test say about Nc1ccn([C@@H]2O[C@H](CO)[C@@H](O)C2O)c(=O)n1 (some centres not stated) ?
f

Hey, what did the test say about COC(=O)c1c(OC)cc2c(c1C)Oc1c(Cl)c(O)c(Cl)c(C)c1C(=O)O2 ?
f

Hey, what did the test say about CC(=O)OC1CCC2(O)CC1(C)CCC1C2CC1(C)C (configuration not stated) ?
f

Hey, what did the test say about O=c1cc(-c2ccc(O)cc2)oc2cc(O[C@@H]3O[C@H](CO)[C@@H](O)[C@H](O)[C@H]3O[C@@H]3OC[C@](O)(CO)[C@H]3O)cc(O)c12 ?
t

Hey, what did the test say about C[C@@H]1CC[C@@]2(OC1)O[C@H]1C[C@H]3[C@@H]4CC[C@H]5C[C@@H](O)CC[C@]5(C)[C@H]4CC[C@]3(C)[C@H]1[C@@H]2C ?
f

Hey, what did the test say about COC(=O)C1=CO[C@@H](O[C@@H]2O[C@H](CO)[C@@H](O)[C@H](O)[C@H]2O)[C@@H]2[C@@H](C)[C@@H](O)C[C@H]12 ?
f

Hey, what did the test say about CCOC(=O)CCCCCCCCCCCCC1C=CCC1 (configuration not stated) ?
f

Hey, what did the test say about O=C1[O][Bi][O]c2ccccc21 ?
f

Hey, what did the test say about O=C1c2c(O)cccc2[C@H]([C@@H]2O[C@H](CO)[C@@H](O)[C@H](O)[C@H]2O)c2cc(CO)cc(O)c21 ?
f

Hey, what did the test say about COc1ccc2c(c1)OC[C@@H](Cc1ccc(OC)c(OC)c1)[C@@H]2O ?
f

Hey, what did the test say about CCCCCCCCCCCC1=C(O)C(=O)C=C(O)C1=O ?
f

Hey, what did the test say about O=C(O)C1=CCCNC1 ?
f

Hey, what did the test say about CC(=O)O[C@H]1C[C@@H](OC(C)=O)C(C)(C)C2C[C@@H](OC(C)=O)[C@@]3(C)C4=CC(=O)O[C@@H](c5ccoc5)[C@]4(C)CCC3[C@]21C (some centres not stated) ?
f

Hey, what did the test say about CN(C)C(=O)C(CCN1CCC(O)(c2ccc(Cl)cc2)CC1)(c1ccccc1)c1ccccc1 ?
f

Hey, what did the test say about CON ?
f

Hey, what did the test say about OCc1c[nH]c2ccccc12 ?
f

Hey, what did the test say about CC(=O)NCCc1c[nH]c2ccc(O)cc12 ?
f

Hey, what did the test say about NC[C@H]1O[C@H](O[C@H]2[C@H](O)[C@@H](O[C@H]3O[C@H](CO)[C@@H](O)[C@H](N)[C@H]3O)[C@H](N)C[C@@H]2N)[C@H](N)C[C@@H]1O ?
f
